test system: human GST-PIKFYVE (Homo sapiens)
Construct: GST; purchased Carna biosciences 11-118
procedure details: ADP-Glo kinase assay, enzyme inhibition activity against human PIKFYVE (Carna biosciences)
Assay type: biochemical
experimental context: inhibitory activity at final compound concentration 10 nM; 1 hour at room temperature
experimental readout: ADP-Glo kinase assay (%, 10 nM) (%)

> print(dat)
                               smiles.input                       test.system  value
1  Cc1cccc(/C=N/Nc2nc(N3CCOCC3)nc3c2ncn3-c2cncc(C)c2)c1  human GST-PIKFYVE (Homo sapiens)  94.29
2  Cc1cccc(/C=N/Nc2nc(N3CCOCC3)nc3c2ncn3CC(=O)c2ccc(Cl)cc2)c1  human GST-PIKFYVE (Homo sapiens)  72.46
3  Cc1cccc(/C=N/Nc2nc(N3CCOCC3)nc3c2ncn3CC(=O)c2ccccc2Cl)c1  human GST-PIKFYVE (Homo sapiens)  90.25
4  COc1ccc(/C=N/n2cnc3c(Nc4ccncc4)nc(N4CCOCC4)nc32)cc1  human GST-PIKFYVE (Homo sapiens)  73.94
5  Cc1cccc(/C=N/Nc2nc(N3CCOCC3)nc3c2ncn3-c2cccc(C(F)(F)F)c2)c1  human GST-PIKFYVE (Homo sapiens)  69.14

(I) COC(=O)N1CC(n2cnc3c(N/N=C/c4cccc(C)c4)nc(N4CCOCC4)nc32)C1
(II) Cc1cccc(/C=N/Nc2nc(N3CCOCC3)nc3c2ncn3-c2ccnc(Cl)c2)c1
**Query** Between I and II , which one has the lower reported ADP-Glo kinase assay (%, 10 nM) value? Respond with the label that goes with your answer.
**Result** I

(I) Cc1cccc(/C=N/Nc2nc(N3CCOCC3)nc3c2ncn3CC2CC2)c1
(II) COc1ccccc1C(=O)Cn1cnc2c(N/N=C/c3cccc(C)c3)nc(N3CCOCC3)nc21
**Query** Between I and II , which one has the lower reported ADP-Glo kinase assay (%, 10 nM) value? Respond with the label that goes with your answer.
**Result** I

----------
test system: human GST-PIKFYVE (Homo sapiens, UniProt Q9Y2I7)
Construct: GST; purchased Carna biosciences 11-118
Sequence (Q9Y2I7 whole entry): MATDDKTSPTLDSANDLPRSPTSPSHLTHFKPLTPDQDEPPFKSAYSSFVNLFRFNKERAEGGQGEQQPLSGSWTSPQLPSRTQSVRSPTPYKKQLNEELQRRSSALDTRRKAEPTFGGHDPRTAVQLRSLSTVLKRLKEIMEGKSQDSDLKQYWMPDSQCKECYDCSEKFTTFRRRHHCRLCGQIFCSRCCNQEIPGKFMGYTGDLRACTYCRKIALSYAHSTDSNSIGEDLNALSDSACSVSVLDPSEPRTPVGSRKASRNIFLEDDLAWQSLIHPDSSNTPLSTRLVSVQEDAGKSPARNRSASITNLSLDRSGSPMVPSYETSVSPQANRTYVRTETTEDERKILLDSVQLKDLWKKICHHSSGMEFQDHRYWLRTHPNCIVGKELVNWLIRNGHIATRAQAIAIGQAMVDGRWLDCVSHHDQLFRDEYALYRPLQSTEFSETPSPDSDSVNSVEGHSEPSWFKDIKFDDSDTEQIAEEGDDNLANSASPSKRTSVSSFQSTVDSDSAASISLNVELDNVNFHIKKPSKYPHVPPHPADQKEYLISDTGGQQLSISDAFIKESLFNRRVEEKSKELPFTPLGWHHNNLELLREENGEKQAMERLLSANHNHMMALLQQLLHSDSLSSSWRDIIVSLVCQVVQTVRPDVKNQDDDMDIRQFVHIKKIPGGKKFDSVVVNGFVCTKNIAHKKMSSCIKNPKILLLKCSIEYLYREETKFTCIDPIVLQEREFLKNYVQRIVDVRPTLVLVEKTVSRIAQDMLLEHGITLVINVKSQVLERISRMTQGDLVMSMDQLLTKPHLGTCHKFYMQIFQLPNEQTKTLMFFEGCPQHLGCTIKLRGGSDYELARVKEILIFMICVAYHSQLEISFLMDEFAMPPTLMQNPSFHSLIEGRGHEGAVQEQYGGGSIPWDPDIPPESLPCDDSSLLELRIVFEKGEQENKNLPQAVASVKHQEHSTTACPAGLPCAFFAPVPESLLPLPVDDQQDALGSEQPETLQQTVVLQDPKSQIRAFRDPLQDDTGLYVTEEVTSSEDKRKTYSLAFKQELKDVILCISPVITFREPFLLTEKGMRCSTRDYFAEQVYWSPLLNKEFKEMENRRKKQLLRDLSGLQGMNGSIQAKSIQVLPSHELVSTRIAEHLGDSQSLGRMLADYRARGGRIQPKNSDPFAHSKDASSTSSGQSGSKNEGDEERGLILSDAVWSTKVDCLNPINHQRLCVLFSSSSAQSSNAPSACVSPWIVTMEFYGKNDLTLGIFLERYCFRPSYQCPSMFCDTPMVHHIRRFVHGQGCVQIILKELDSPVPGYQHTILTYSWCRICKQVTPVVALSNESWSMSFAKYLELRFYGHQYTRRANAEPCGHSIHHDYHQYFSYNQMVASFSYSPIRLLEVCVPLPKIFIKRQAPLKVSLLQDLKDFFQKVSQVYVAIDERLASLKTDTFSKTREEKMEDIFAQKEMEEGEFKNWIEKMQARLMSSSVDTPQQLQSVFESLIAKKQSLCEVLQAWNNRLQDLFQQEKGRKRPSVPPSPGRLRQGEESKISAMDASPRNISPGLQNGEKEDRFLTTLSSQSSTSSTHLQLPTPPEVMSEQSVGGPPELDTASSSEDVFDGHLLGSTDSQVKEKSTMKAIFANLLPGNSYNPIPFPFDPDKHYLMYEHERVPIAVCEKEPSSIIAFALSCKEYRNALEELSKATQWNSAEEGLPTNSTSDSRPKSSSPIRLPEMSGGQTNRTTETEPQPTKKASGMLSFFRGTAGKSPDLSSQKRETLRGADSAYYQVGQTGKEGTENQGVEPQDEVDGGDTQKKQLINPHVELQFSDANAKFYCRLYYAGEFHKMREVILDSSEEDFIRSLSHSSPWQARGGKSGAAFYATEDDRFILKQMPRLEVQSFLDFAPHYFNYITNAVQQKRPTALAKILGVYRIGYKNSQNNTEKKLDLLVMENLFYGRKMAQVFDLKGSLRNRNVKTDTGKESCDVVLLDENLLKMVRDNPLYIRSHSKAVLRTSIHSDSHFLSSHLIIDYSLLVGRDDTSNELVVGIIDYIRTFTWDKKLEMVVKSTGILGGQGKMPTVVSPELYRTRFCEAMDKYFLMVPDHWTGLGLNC
procedure details: ADP-Glo kinase assay, enzyme inhibition activity against human PIKFYVE (Carna biosciences)
Type: biochemical
experimental context: inhibitory activity at final compound concentration 10 nM; 1 hour at room temperature
Protocol: The enzyme inhibition activity values for the compounds according to Examples against human PIKFYVE were calculated using the ADP-Glo™ kinase assay service of Carna biosciences, Inc. The enzyme activity evaluation method provided by Carna biosciences Inc., is shown below. Enzyme inhibition activity was evaluated by reacting the compounds according to Examples with human GST-PIKFYVE (11-118, Carna biosciences), which was purified using glutathione Sepharose chromatography. […]
experimental readout: ADP-Glo kinase assay (%, 10 nM) (%)

Solved cases below.
> print(dat)
                               smiles.input                               test.system  value.unit  value
1  Cc1cccc(/C=N/Nc2nc(N3CCOCC3)nc3c2ncn3-c2cc(C)ns2)c1  human GST-PIKFYVE (Homo sapiens, UniProt Q9Y2I7)           %  73.88
2  COc1ccc(Nc2nc(N3CCOCC3)nc3c2ncn3/N=C/c2cccc(C)c2)cc1  human GST-PIKFYVE (Homo sapiens, UniProt Q9Y2I7)           %  55.44
3  Cc1cccc(/C=N/Nc2nc(N3CCOCC3)nc3c2ncn3CC(=O)c2cccc(F)c2)c1  human GST-PIKFYVE (Homo sapiens, UniProt Q9Y2I7)           %  73.96
4  COc1cccc(Nc2nc(N3CCOCC3)nc3c2ncn3/N=C/c2cccc(C)c2)c1  human GST-PIKFYVE (Homo sapiens, UniProt Q9Y2I7)           %  55.65
5  COc1ccc(-n2cnc3c(-n4ccc(-c5cccc(C)c5)n4)nc(N4CCOCC4)nc32)cc1  human GST-PIKFYVE (Homo sapiens, UniProt Q9Y2I7)           %  59.84
6  Cc1cccc(/C=N/Nc2nc(N3CCOCC3)nc3c2ncn3-c2ccc(Cl)cn2)c1  human GST-PIKFYVE (Homo sapiens, UniProt Q9Y2I7)           %  87.75
7  C(=N\n1cnc2c(Nc3ccncc3)nc(N3CCOCC3)nc21)/c1ccccc1  human GST-PIKFYVE (Homo sapiens, UniProt Q9Y2I7)           %  89.56
8  Cc1cccc(-c2ccn(-c3nc(N4CCOCC4)nc4c3ncn4-c3cccnc3)n2)c1  human GST-PIKFYVE (Homo sapiens, UniProt Q9Y2I7)           %  81.33

(1) Cc1cccc(/C=N/Nc2nc(N3CCOCC3)nc3c2ncn3-c2ccnc(O)c2)c1
(2) COc1cccc(-c2ccn(-c3nc(N4CCOCC4)nc4c3ncn4CC(=O)c3ccccn3)n2)c1
**Query** Between 1 and 2 , which one has the lower reported ADP-Glo kinase assay (%, 10 nM) value? Respond with the label that goes with your answer.
**Result** 2
(2: 56.03%, 1: 91.19%)

----------
test system: PIKFYVE (Homo sapiens)
procedure details: NanoBRET TE Intracellular Kinase Assay, interaction of PIKFYVE and compounds in HEK293 cells
experimental context: IC50 class from BRET; HEK293 cells expressing PIKFYVE-NanoLuc; 2 hours incubation
pIC50: −log10 of the molar value.
Catalogue of pIC50 readings, one per entry.

Solved cases below.
> print(dat)
                               smiles.input         value
1  Cc1cccc(/C=N/Nc2nc(N3CCOCC3)nc3c2ncn3CCc2ccccn2)c1  7.70 to 8.00
2  O=C(Cn1cnc2c(N/N=C/c3c[nH]c4ccccc34)nc(N3CCOCC3)nc21)c1ccccn1  7.70 to 8.00

**Query** Please look up its pIC50: Cc1cccc(/C=N/Nc2nc(N3CCOCC3)nc3c2ncn3C2CCN(C(=O)c3ccccc3)CC2)c1
**Result** 7.70 to 8.00

**Query** Please look up its pIC50: Cc1cccc(/C=N/Nc2nc(N3CCOCC3)nc3c2ncn3CC(=O)c2cccnc2)c1
**Result** 7.52 to 7.70

**Query** Please look up its pIC50: Cc1cccc(/C=N/Nc2nc(N3CCOCC3)nc3c2ncn3CC(=O)c2cccc(C#N)c2)c1
**Result** 7.70 to 8.00

**Query** Please look up its pIC50: Cc1cccc(/C=N/Nc2nc(N3CCOCC3)nc3c2ncn3CCc2cccnc2)c1
**Result** ≥ 8.00

----------
Catalogue of IC50 readings, one per entry.
test system: PIKFYVE (Homo sapiens, UniProt Q9Y2I7)
procedure details: NanoBRET TE Intracellular Kinase Assay, interaction of PIKFYVE and compounds in HEK293 cells
experimental context: IC50 class from BRET; HEK293 cells expressing PIKFYVE-NanoLuc; 2 hours incubation

Solved cases below.
> print(dat)
                               smiles.input                             test.system  experimental.readout        value
1  Cc1cccc(/C=N/Nc2nc(N3CCOCC3)nc3c2ncn3CC(=O)c2ccncc2)c1  PIKFYVE (Homo sapiens, UniProt Q9Y2I7)                  IC50  20 to 30 nM
2  Cc1cccc(/C=N/Nc2nc(N3CCOCC3)nc3c2ncn3-c2ccnc(O)c2)c1  PIKFYVE (Homo sapiens, UniProt Q9Y2I7)                  IC50      ≤ 10 nM
3  COc1ccccc1C(=O)Cn1cnc2c(N/N=C/c3cccc(C)c3)nc(N3CCOCC3)nc21  PIKFYVE (Homo sapiens, UniProt Q9Y2I7)                  IC50      ≤ 10 nM
4  Cc1cccc(/C=N/Nc2nc(N3CCOCC3)nc3c2ncn3-c2ccc(C)nc2)c1  PIKFYVE (Homo sapiens, UniProt Q9Y2I7)                  IC50      ≤ 10 nM
5  COc1cccc(-c2cccc3c(N/N=C/c4cccc(C)c4)nc(N4CCOCC4)nc23)c1  PIKFYVE (Homo sapiens, UniProt Q9Y2I7)                  IC50  20 to 30 nM
6  COc1ccc(-c2cccc3c(N/N=C/c4cccc(C)c4)nc(N4CCOCC4)nc23)cc1  PIKFYVE (Homo sapiens, UniProt Q9Y2I7)                  IC50  10 to 20 nM
7  Cc1cccc(/C=N/Nc2nc(N3CCOCC3)nc3c2ncn3-c2cccc(N(C)C)c2)c1  PIKFYVE (Homo sapiens, UniProt Q9Y2I7)                  IC50      ≤ 10 nM
8  Cc1cccc(/C=N/Nc2nc(N3CCOCC3)nc3c2ncn3C2CCN(C(=O)N3CCOCC3)CC2)c1  PIKFYVE (Homo sapiens, UniProt Q9Y2I7)                  IC50  20 to 30 nM

**Query** Please look up its IC50: Cc1cccc(-c2ccn(-c3nc(N4CCOCC4)nc4c3ncn4-c3cccnc3)n2)c1
**Result** ≤ 10 nM
